- targetOrSystem: Urease (Canavalia ensiformis)
- Sequence (P07374 whole entry): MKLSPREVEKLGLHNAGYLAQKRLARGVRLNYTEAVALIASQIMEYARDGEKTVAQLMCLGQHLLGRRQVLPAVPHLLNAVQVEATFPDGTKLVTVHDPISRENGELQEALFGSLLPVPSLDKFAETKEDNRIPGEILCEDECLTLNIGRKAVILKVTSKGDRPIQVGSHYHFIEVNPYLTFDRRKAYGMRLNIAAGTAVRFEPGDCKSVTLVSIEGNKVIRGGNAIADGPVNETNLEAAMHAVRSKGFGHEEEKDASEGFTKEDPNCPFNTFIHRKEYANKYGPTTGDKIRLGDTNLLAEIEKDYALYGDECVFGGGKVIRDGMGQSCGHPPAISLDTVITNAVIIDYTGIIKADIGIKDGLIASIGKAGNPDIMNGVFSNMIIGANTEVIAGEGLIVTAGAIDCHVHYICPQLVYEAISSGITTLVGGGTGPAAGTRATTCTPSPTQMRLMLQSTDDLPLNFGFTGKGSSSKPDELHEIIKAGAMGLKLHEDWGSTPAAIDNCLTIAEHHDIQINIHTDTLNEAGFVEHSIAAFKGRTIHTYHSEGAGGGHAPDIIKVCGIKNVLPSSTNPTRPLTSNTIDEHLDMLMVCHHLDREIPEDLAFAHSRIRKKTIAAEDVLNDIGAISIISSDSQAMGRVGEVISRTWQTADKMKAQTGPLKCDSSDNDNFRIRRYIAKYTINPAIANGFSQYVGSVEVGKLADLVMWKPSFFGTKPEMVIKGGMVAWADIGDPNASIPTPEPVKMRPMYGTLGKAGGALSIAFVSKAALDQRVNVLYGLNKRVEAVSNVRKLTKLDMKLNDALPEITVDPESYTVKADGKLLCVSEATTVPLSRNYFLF
- protocolDescription: Inhibition of jack bean urease assessed as reduction in ammonia production incubated at 30 degC for 15 mins by indophenol method
Starred links: 1 amine or outer side, 2 acyl side, 3 side chain; linkers in the order of their positions; H or OH if unused. Residues, ends and D or L forms follow the SMILES beside them. *: point of attachment. X1 = c1ccc2c(N3CCN(*)CC3)nsc2c1; NH(4-F-phenyl) = Fc1ccc(N*)cc1; NH(2-F-phenyl) = Fc1ccccc1N*; CO = O=C([*:1])[*:2]; X6 = Fc1cccc(N*)c1; X3 = COc1ccccc1N*
endpoint: IC50
Report field: quantity (unit follows the number).

Challenge: Tell me IC50 reported for CC(C)[C@H](NC(=O)CNC(=O)Nc1cccc(F)c1)C(=O)NCC(=O)N[C@H](C(=O)N1CCC[C@H]1C(=O)N1CCN(c2nsc3ccccc23)CC1)C(C)C ({X6-CO}-GVGVP-X1)
Response given: 44 µM

Challenge: Given COc1ccccc1NC(=O)NCC(=O)N[C@@H](Cc1ccccc1)C(=O)NCC(=O)N[C@H](C(=O)N1CCC[C@H]1C(=O)N1CCN(c2nsc3ccccc23)CC1)C(C)C ({X3-CO}-GFGVP-X1) , respond with its IC50.
Response given: 21 µM

Challenge: Give me measured IC50, please, for this compound: CC(C)[C@H](NC(=O)CNC(=O)Nc1ccc(F)cc1)C(=O)NCC(=O)N[C@H](C(=O)N1CCC[C@H]1C(=O)N1CCN(c2nsc3ccccc23)CC1)C(C)C ({NH(4-F-phenyl)-CO}-GVGVP-X1)
Response given: 39 µM

Challenge: Read off the recorded IC50 for CC(C)[C@H](NC(=O)CNC(=O)[C@H](Cc1ccccc1)NC(=O)CNC(=O)Nc1ccccc1F)C(=O)N1CCC[C@H]1C(=O)N1CCN(c2nsc3ccccc23)CC1 ({NH(2-F-phenyl)-CO}-GFGVP-X1)
Response given: 41 µM
